Source of measurements: patent US20070191480A1

Test system: dust mites
Assay: Dust mite kill efficacy, submersion method
Format: in vivo
Conditions: 1% HC with 7% DPnP, 1% Stepanol WAC; maximum 30 minutes
For each of the compounds below, state its 1% HC with 7% DPnP Solution: time to 100% kill.
# answer = value followed by unit

QUERY: Data request, read-out 1% HC with 7% DPnP Solution: time to 100% kill, for CCCCCCOCCOCCO
RESULT: 26 min

QUERY: Data request, read-out 1% HC with 7% DPnP Solution: time to 100% kill, for CCCCOCCOC(C)=O [Butyl Cellosolve Acetate, ethylene glycol n-butyl ether acetate]
RESULT: 18 min

QUERY: Data request, read-out 1% HC with 7% DPnP Solution: time to 100% kill, for CCCCCCOCCO
RESULT: 14 min

QUERY: Data request, read-out 1% HC with 7% DPnP Solution: time to 100% kill, for CCCCOCC(C)O (centres unmarked)
RESULT: 29 min

QUERY: Data request, read-out 1% HC with 7% DPnP Solution: time to 100% kill, for CC(O)COc1ccccc1 (centres unmarked)
RESULT: 30 min
